# Test system: MDA-MB-435
# ASSAY_NAME: Anticancer activity against human MDA-MB-435 cells assessed as cell growth at 1 uM incubated for 48 hrs by SRB assay
# Format: functional
# EXPERIMENTAL_CONDITIONS: read-out: Activity
Where a name gives a salt, the structure may show the parent alone.
I'd appreciate it if you could supply growth at 1 µM values for the items below.
Give bare numbers, in %.

MOLECULE	growth at 1 µM, %
Cc1cc(C)n(C(=O)CCn2nc(C)c(Cl)c2C)n1	100
Cc1cc(C)n(C(=O)CNc2ccccc2Cl)n1	100
Cc1nn(C[C@@H](O)COc2ccc3c(C)cc(=O)oc3c2)c(C)c1C	100
Nc1cc(-c2cc3cc(F)ccc3[nH]2)ccc1F	21.5

Quick one: give me growth at 1 µM for each item below, same order please.
1. COc1cccc2c1C(=O)c1c(O)c3c(c(O)c1C2=O)C[C@@](O)(C(=O)CO)C[C@@H]3O[C@H]1C[C@H](N)[C@H](O)[C@H](C)O1 [DOXORUBICIN HYDROCHLORIDE]
2. NC(=O)c1c(NC(=O)Cc2ccc(F)cc2)sc2c1CCCC2
3. C[C@H](Oc1ccc(Cl)cc1)C(=O)Nc1sc2c(c1C(N)=O)CCCC2
4. Cc1ccc(-c2cc3cc(F)ccc3[nH]2)cc1N
5. Cc1cc(C)n2ncc(C(=O)NCc3ccc(Cl)cc3)c2n1
6. Cc1cc(C)cc(O[C@H](C)C(=O)Nc2ccc(F)c([N+](=O)[O-])c2)c1
7. Cc1sc2[nH]c(CNc3ccc(F)cc3)nc(=O)c2c1C

A.
42.8
99.3
100
40
99.9
100
97.9

Q. May I ask what growth at 1 µM has been recorded for Cc1ccc(-c2cc(C(N)=O)c3cc(Cl)ccc3n2)o1 ?
A. 95
